Numbers sourced from patent US12448369B2.

Target of assay: Porcine ventricle myofibrils (ventricular myosin ATPase) (Sus scrofa)
Construct: Myofibrils from porcine cardiac muscle was isolated from the left ventricle of Yucatan minipigs; tissue Exemplar Genetics; host or cells: left ventricle of Yucatan minipigs, myofibrils prepared in house
Assay: Myofibril ATPase assay, porcine ventricle myofibrils
Assay type: biochemical, porcine (Yucatan minipigs)
Assay context: porcine ventricle myofibrils; Y75 value
Attribute measured: Ventricular EC25 (µM)
State the answer as a number, implicitly in µM.

Ventricular EC25 reported for this compound Cc1nccc2[nH]c(=O)c(CC(=O)N[C@@H](C)c3ccc(C#N)cc3F)c(C#N)c12 : 0.54

Ventricular EC25 reported for this compound C[C@H](NC(=O)Cc1cc2nc(Cl)ncc2[nH]c1=O)c1ccc(F)cc1F : 44.80

Ventricular EC25 reported for this compound Cc1nc(C#N)cnc1[C@H](C)NC(=O)C(F)(F)c1c(C)c2c(C)nccc2[nH]c1=O (single isomer, unassigned) : 13.00

Ventricular EC25 reported for this compound Cc1ccc2[nH]c(=O)c(CC(=O)N[C@@H](C)c3ncc(C#N)cc3F)c(C)c2n1 : 1.66

Ventricular EC25 reported for this compound C[C@H](NC(=O)Cc1c(C(F)(F)F)c2c(C3CC3)nccc2[nH]c1=O)c1ccc(C#N)cn1 (single isomer, unassigned) : 100.00

Ventricular EC25 reported for this compound Cc1nccc2[nH]c(=O)c(CC(=O)N[C@H]3CCc4cc(F)cc(F)c43)c(C)c12 [compound 406] : 0.38

Ventricular EC25 reported for this compound Cc1nccc2[nH]c(=O)c(CC(=O)N[C@H](C)c3cccnc3)c(C)c12 (single isomer, unassigned) : 100.00

###

Target of assay: Porcine ventricle myofibrils (ventricular myosin ATPase) (Sus scrofa, UniProt P79293)
Construct: Myofibrils from porcine cardiac muscle was isolated from the left ventricle of Yucatan minipigs; tissue Exemplar Genetics; host or cells: left ventricle of Yucatan minipigs, myofibrils prepared in house
Sequence (P79293 whole entry): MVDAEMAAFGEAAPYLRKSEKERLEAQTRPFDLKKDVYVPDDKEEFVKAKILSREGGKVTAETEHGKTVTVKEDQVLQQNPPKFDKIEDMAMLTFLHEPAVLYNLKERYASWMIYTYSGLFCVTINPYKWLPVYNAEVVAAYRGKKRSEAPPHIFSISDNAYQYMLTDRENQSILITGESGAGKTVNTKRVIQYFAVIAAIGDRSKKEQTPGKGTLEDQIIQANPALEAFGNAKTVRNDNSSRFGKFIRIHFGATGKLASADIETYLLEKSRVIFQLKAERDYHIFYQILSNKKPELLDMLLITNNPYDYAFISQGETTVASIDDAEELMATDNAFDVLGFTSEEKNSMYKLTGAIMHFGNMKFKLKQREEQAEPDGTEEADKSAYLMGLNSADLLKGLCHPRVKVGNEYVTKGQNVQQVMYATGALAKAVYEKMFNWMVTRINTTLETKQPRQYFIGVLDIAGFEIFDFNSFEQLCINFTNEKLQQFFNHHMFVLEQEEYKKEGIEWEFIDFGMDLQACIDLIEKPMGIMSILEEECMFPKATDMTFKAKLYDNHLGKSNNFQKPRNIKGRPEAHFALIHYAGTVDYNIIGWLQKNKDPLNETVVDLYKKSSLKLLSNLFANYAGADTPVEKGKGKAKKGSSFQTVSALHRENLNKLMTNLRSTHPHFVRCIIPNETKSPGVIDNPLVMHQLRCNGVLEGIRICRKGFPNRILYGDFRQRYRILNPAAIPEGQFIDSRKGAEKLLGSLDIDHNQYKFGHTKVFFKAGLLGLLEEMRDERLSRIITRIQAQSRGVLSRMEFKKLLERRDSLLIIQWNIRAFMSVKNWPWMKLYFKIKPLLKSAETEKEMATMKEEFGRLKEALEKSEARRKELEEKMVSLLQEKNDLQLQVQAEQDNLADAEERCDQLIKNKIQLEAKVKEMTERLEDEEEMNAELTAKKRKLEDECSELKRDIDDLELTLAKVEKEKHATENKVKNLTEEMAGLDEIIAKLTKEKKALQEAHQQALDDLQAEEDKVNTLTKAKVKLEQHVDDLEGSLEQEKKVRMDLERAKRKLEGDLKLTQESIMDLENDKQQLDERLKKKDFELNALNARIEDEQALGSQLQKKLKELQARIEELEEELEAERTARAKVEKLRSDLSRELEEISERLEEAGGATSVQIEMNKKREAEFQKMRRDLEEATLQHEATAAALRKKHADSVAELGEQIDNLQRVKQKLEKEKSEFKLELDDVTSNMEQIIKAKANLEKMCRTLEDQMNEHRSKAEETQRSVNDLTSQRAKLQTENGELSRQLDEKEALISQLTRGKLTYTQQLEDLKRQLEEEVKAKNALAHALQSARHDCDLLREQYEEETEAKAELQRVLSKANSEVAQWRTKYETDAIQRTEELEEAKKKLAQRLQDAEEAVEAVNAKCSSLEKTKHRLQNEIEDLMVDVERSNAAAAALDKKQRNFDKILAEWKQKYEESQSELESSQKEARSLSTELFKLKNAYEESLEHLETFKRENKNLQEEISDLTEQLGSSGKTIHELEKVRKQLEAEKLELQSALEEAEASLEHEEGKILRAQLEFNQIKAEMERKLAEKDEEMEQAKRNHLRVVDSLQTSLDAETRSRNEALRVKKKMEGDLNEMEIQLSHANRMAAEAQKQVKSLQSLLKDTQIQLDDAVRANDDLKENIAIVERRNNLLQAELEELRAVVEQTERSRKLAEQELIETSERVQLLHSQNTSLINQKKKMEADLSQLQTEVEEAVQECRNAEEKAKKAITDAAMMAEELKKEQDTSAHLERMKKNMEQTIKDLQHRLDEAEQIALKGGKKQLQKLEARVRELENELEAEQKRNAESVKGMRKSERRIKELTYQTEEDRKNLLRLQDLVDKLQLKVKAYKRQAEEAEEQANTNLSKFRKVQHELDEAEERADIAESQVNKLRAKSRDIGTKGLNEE
Assay: Myofibril ATPase assay, porcine ventricle myofibrils
Format: biochemical, porcine (Yucatan minipigs)
Assay context: Y75 value (no ‡ mark); porcine ventricle myofibrils
Attribute measured: Ventricular EC25 (µM)
State the answer as a number, implicitly in µM.

Ventricular EC25 reported for this compound Cc1c(O)ccc2[nH]c(=O)c(CC(=O)N[C@@H](C)c3ncc(F)cc3F)cc12 (single isomer, unassigned) [compound 78] : 100.00

Ventricular EC25 reported for this compound C[C@H](NC(=O)Cc1cc2c(Cl)c(O)ccc2[nH]c1=O)c1ccc(F)cc1F [compound 91] : 100.00

Ventricular EC25 reported for this compound Cc1cc(C#N)ccc1[C@@H](C)NC(=O)Cc1c(O)c2cc(F)c(F)cc2[nH]c1=O [compound 1088] : 100.00

Ventricular EC25 reported for this compound Cc1ccncc1[C@H](C)NC(=O)Cc1c(C)c2c(C)c(F)ccc2[nH]c1=O [compound 1047] : 1.13

Ventricular EC25 reported for this compound Cc1c(CC(=O)N[C@@H](C)c2cnc(C#N)cn2)c(=O)[nH]c2ccc(F)c(F)c12 [compound 1146] : 0.19

Ventricular EC25 reported for this compound Cc1c(F)ccc2[nH]c(=O)c(C(F)(F)C(=O)N[C@@H](C)c3ncc(C#N)cn3)c(C)c12 (single isomer, unassigned) [compound 4832] : 0.58

Ventricular EC25 reported for this compound C[C@@H](NC(=O)C1(c2cc3cc(F)ccc3[nH]c2=O)CC1)c1cc(C#N)ccn1 (single isomer, unassigned) [compound 2536] : 100.00

###

Test system: Rabbit Psoas myofibrils (skeletal myosin ATPase)
Assay: Myofibril ATPase assay, rabbit psoas (skeletal) myofibrils
Assay type: biochemical
Assay context: rabbit psoas myofibrils; Y75 value
Attribute measured: Skeletal EC25 (µM)
State the answer as a number, implicitly in µM.

Skeletal EC25 reported for this compound C[C@H](NC(=O)[C@@H](C)c1cc2c(F)nccc2[nH]c1=O)c1ccc(F)cc1F (single isomer, unassigned) : 0.29

Skeletal EC25 reported for this compound Cc1c(CC(=O)N[C@H](CO)c2ccc(C#N)cc2F)c(=O)[nH]c2ccnc(C#N)c12 (single isomer, unassigned) : 0.17

Skeletal EC25 reported for this compound Cc1c(CC(=O)N[C@@H](CO)c2ccc(C#N)cc2F)c(=O)[nH]c2ccc(C(F)(F)F)nc12 : 0.14

Skeletal EC25 reported for this compound Cc1c(CC(=O)N[C@@H](CO)c2ncc(F)cc2F)c(=O)[nH]c2ccc(C#N)nc12 : 33.76

Skeletal EC25 reported for this compound Cc1nc(C#N)ncc1[C@@H](C)NC(=O)Cc1c(C)c2c(C)nccc2[nH]c1=O : 0.03

Skeletal EC25 reported for this compound Cc1c(CC(=O)N[C@H](CO)c2ccc(F)cc2F)c(=O)[nH]c2ccnc(OC3CC3)c12 : 13.03

Skeletal EC25 reported for this compound Cc1ccc2[nH]c(=O)c(CC(=O)N[C@@H](C)c3ncc(C#N)cc3F)cc2n1 : 9.72

Skeletal EC25 reported for this compound Cc1c([C@@H](C)C(=O)N[C@@H](C)c2ccc(F)cc2F)c(=O)[nH]c2ccc(C(F)(F)F)nc12 (single isomer, unassigned) : 0.51

Skeletal EC25 reported for this compound Cc1c(CC(=O)N[C@H](CO)c2ccc(F)cc2F)c(=O)[nH]c2ccc(C#N)nc12 : 7.04

Skeletal EC25 reported for this compound Cc1cccc([C@H](C)NC(=O)Cc2c(C)c3c(C)nccc3[nH]c2=O)c1 (single isomer, unassigned) : 100.00

Skeletal EC25 reported for this compound C[C@@H](NC(=O)Cc1c(C(F)(F)F)c2c(C3CC3)nccc2[nH]c1=O)c1ccc(C#N)cn1 (single isomer, unassigned) : 100.00

Skeletal EC25 reported for this compound Cc1nccc2[nH]c(=O)c(CC(=O)N[C@H]3COc4cccnc43)c(C)c12 (single isomer, unassigned) : 100.00

Skeletal EC25 reported for this compound COc1nccc2[nH]c(=O)c(CC(=O)N[C@H](C)c3ncc(C#N)cn3)c(C(F)(F)F)c12 (single isomer, unassigned) : 100.00

Skeletal EC25 reported for this compound Cc1nccc2[nH]c(=O)c(CC(=O)N[C@H](C)c3cccc(O)c3)c(C)c12 (single isomer, unassigned) : 100.00

###

What Skeletal EC25 was measured for each of the following?
System: Rabbit Psoas myofibrils (skeletal myosin ATPase)
Assay: Myofibril ATPase assay, rabbit psoas (skeletal) myofibrils
Format: biochemical
Assay context: Y75 value (no ‡ mark); rabbit psoas myofibrils
Protocol: Example 1. Myofibril ATPase Assay Myofibril ATPase assays are known in the art to be useful in evaluating small molecules for the treatment of HCM and other cardiac indications. Myosin ATPase activity is assessed by using a coupled reaction system, in which ADP generated by the myosin ATPase function is coupled to the disappearance of NADH through the pyruvate kinase/lactate dehydrogenase (PK-LDH) system. […]
State the answer as a number, implicitly in nM.

Entry CC(C(=O)N[C@@H](C)c1ccc(F)cc1F)c1c(C(F)(F)F)c2cc(F)ccc2[nH]c1=O (stereo partly shown) [compound 113] under Rabbit Psoas myofibrils (skeletal myosin ATPase) had Skeletal EC25 of 40

Entry C[C@@H](NC(=O)C1(c2cc3c(F)c(F)ccc3[nH]c2=O)CC1)c1ncc(C#N)cc1F (single isomer, unassigned) [compound 2592] under Rabbit Psoas myofibrils (skeletal myosin ATPase) had Skeletal EC25 of 3540

Entry Cc1c(CC(=O)N[C@@H](C)c2ncc(C#N)cc2F)c(=O)[nH]c2ccc(F)c(C3CC3)c12 [compound 28] under Rabbit Psoas myofibrils (skeletal myosin ATPase) had Skeletal EC25 of 20

Entry C[C@@H](NC(=O)Cc1c(C2CC2)c2cc(F)ccc2[nH]c1=O)c1ncc(C#N)cc1F [compound 39] under Rabbit Psoas myofibrils (skeletal myosin ATPase) had Skeletal EC25 of 100000

Entry Cc1nc(C#N)cnc1[C@@H](C)NC(=O)Cc1c(C)c2c(F)c(F)ccc2[nH]c1=O [compound 1139] under Rabbit Psoas myofibrils (skeletal myosin ATPase) had Skeletal EC25 of 30

Entry Cc1c(CC(=O)N[C@@H](C)c2ncc(C#N)cc2F)c(=O)[nH]c2ccc(Cl)cc12 (single isomer, unassigned) [compound 2050] under Rabbit Psoas myofibrils (skeletal myosin ATPase) had Skeletal EC25 of 40

Entry Cc1c(CC(=O)N[C@@H](C)c2ncc(C#N)cn2)c(=O)[nH]c2ccc(F)c(Cl)c12 (single isomer, unassigned) [compound 2056] under Rabbit Psoas myofibrils (skeletal myosin ATPase) had Skeletal EC25 of 60

###

System: Rabbit Psoas myofibrils (skeletal myosin ATPase)
Assay: Myofibril ATPase assay, rabbit psoas (skeletal) myofibrils
Assay type: biochemical
Assay context: Y75 value (no ‡ mark); rabbit psoas myofibrils
So basically: Skeletal EC25 at 1 µM or higher? That is Criterion met. Lower than 1 µM? That is Criterion not met.

Entry C[C@H](NC(=O)Cc1cc2c(F)c(F)ccc2[nH]c1=O)c1ncc(F)cc1F : is its Skeletal EC25 no less than 1 µM? Criterion not met

Entry C[C@@H](NC(=O)Cc1cc2c(F)c(F)ccc2[nH]c1=O)c1ncc(C#N)cn1 (single isomer, unassigned) : is its Skeletal EC25 no less than 1 µM? Criterion met

Entry Cc1c(C2(C(=O)N[C@H](C)c3ncc(C#N)cc3F)CC2)c(=O)[nH]c2cccc(C#N)c12 (single isomer, unassigned) : is its Skeletal EC25 no less than 1 µM? Criterion not met

Entry Cc1c(C(F)(F)C(=O)N[C@H](C)c2cnc(C#N)cn2)c(=O)[nH]c2ccc(F)cc12 (single isomer, unassigned) [compound 2563] : is its Skeletal EC25 no less than 1 µM? Criterion not met

Entry Cc1cc(C#N)ncc1[C@H](C)NC(=O)Cc1c(C)c2c(C)c(F)ccc2[nH]c1=O : is its Skeletal EC25 no less than 1 µM? Criterion not met

Entry Cc1c(CC(=O)N[C@@H](C)c2ncc(C#N)cc2F)c(=O)[nH]c2ccc(F)c(C#N)c12 : is its Skeletal EC25 no less than 1 µM? Criterion not met

Entry C[C@@H](NC(=O)Cc1cc2cc(F)c(F)cc2[nH]c1=O)c1ccc(C#N)cn1 : is its Skeletal EC25 no less than 1 µM? Criterion met

Entry Cc1c([C@H](C)C(=O)N[C@@H](C)c2ncc(C#N)cc2F)c(=O)[nH]c2ccc(F)c(F)c12 (single isomer, unassigned) : is its Skeletal EC25 no less than 1 µM? Criterion not met

Entry C[C@@H](NC(=O)Cc1c(C2CC2)c2c(F)cccc2[nH]c1=O)c1ncc(C#N)cc1F : is its Skeletal EC25 no less than 1 µM? Criterion met

Entry Cc1cc([C@@H](C)NC(=O)Cc2c(O)c3c(C)c(F)ccc3[nH]c2=O)ncc1F : is its Skeletal EC25 no less than 1 µM? Criterion met

Entry Cc1c(CC(=O)N[C@@H](C)c2ncc(C#N)cn2)c(=O)[nH]c2ccc(F)c(F)c12 : is its Skeletal EC25 no less than 1 µM? Criterion not met

Entry Cc1c(CC(=O)N[C@@H](C)c2cnc(C#N)cn2)c(=O)[nH]c2ccc(F)cc12 : is its Skeletal EC25 no less than 1 µM? Criterion not met
